Values from patent US8685992B2

- testedSystem: Human HDAC6 (Homo sapiens (Human), UniProt Q9UBN7)
- Sequence (Q9UBN7 whole entry): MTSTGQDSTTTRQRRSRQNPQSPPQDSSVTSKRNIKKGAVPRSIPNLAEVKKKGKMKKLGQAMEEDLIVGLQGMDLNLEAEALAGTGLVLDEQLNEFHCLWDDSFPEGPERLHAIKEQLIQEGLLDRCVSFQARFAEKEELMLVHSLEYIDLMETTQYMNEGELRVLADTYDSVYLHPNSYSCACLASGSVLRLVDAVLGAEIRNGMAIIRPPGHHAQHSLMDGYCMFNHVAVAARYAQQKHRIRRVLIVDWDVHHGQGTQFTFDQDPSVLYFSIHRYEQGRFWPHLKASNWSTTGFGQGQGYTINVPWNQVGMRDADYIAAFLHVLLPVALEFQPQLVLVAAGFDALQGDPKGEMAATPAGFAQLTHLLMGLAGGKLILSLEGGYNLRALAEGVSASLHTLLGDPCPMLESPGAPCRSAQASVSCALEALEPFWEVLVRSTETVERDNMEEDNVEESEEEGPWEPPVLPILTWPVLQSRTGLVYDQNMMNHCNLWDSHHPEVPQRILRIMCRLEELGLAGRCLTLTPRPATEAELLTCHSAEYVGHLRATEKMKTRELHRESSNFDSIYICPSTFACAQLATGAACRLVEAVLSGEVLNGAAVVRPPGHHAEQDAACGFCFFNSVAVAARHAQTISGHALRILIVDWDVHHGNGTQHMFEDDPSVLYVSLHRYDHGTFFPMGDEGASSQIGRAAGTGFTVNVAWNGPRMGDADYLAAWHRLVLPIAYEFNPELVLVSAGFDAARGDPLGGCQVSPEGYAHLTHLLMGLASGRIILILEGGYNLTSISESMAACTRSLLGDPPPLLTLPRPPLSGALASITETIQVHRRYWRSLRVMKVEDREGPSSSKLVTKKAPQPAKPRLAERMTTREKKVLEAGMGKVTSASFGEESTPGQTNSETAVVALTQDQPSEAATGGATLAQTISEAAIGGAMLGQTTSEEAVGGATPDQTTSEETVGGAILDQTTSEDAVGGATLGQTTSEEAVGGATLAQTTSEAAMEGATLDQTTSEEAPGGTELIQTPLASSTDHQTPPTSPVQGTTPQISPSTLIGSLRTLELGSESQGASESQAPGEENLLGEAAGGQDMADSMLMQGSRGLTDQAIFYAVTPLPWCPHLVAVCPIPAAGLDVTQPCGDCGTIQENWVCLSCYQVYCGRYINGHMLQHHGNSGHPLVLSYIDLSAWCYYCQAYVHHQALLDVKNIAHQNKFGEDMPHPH
- test: HDAC6 fluorogenic peptide deacetylation assay
- Format: biochemical
- measurementContext: human HDAC6, 50 μM substrate, 30° C., 2 h; read-out: IC50 (nM) of enzyme activity HDAC6
assayEndpoint: log10 of IC50 (log10 of the value in nM)

compound | val
Nc1ccccc1NC(=O)c1ccc(CNC(=O)c2[nH]c(-c3ccc(O)cc3)cc2-c2ccoc2)cc1 [Example 37] | 3.46
O=C(NO)c1ccc(CNC(=O)c2[nH]c(-c3ccoc3)cc2-c2ccc(F)cc2)cc1 [Example 12] | 1.63
Nc1ccccc1NC(=O)c1ccc(CNC(=O)c2[nH]c(-c3ccoc3)cc2-c2ccc(O)cc2)cc1 [Example 34] | 3.10
O=C(NO)c1ccc(CNC(=O)c2[nH]c(-c3ccc(O)cc3)cc2-c2ccsc2)cc1 [Example 14] | -0.36
COc1ccc(-c2cc(-c3ccccc3)[nH]c2C(=O)NCCCCCC(=O)NO)cc1 [Kendine 91, reference compound] | 1.54

---

- testedSystem: Human HDAC3/NcoR2 (Homo sapiens (Human))
- Sequence (O15379 whole entry): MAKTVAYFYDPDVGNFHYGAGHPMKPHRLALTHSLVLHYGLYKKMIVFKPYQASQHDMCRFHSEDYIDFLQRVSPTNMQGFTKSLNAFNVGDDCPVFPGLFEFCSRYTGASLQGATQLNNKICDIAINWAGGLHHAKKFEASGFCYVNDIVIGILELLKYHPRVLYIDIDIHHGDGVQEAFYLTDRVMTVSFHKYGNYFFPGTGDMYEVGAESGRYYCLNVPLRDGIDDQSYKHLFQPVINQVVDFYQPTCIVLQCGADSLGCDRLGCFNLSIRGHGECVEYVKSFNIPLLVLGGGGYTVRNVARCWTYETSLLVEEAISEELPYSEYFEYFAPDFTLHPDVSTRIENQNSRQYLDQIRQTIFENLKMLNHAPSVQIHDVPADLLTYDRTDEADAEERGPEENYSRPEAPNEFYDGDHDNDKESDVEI
- Sequence (Q9Y618 395-489 partner): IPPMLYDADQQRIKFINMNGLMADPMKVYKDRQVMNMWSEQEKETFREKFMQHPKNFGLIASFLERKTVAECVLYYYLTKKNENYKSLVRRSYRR
- test: HDAC3 fluorogenic peptide deacetylation assay
- Type: biochemical
- measurementContext: human HDAC3/NcoR2, 50 μM substrate, 30° C., 2 h; read-out: IC50 (nM) of enzyme activity HDAC3
Recorded IC50 by entry

chemSmiles | unitAbbreviation | qualifierOperator | IC50
COc1ccc(-c2cc(-c3ccccc3)[nH]c2C(=O)NCc2ccc(C(=O)Nc3ccccn3)cc2)cc1 | nM | > | 5000
O=C(NO)c1ccc(CNC(=O)c2[nH]c(-c3ccoc3)cc2-c2ccc(F)cc2)cc1 | nM | = | 451
O=C(NO)c1ccc(CNC(=O)c2[nH]c(-c3ccc(O)cc3)cc2-c2ccsc2)cc1 | nM | = | 124

---

- Tested on: HT-29
- test: Cancer cell growth inhibition, HT-29
- Assay type: cell-based, human
- measurementContext: Homo sapiens; HT-29, Colorectal Cancer, 72 h treatment
pIC50: −log10 of the molar value.
assayEndpoint: pIC50

chemSmiles | val
O=C(NO)c1ccc(CNC(=O)c2[nH]c(-c3ccoc3)cc2-c2ccc(O)cc2)cc1 | 4.97
O=C(NO)c1ccc(CNC(=O)c2[nH]c(-c3ccc(O)cc3)cc2-c2ccsc2)cc1 | 5.24
O=C(NO)c1ccc(CNC(=O)c2[nH]c(-c3ccc(O)cc3)cc2-c2ccoc2)cc1 | 5.64
COc1ccc(-c2cc(-c3ccoc3)c(C(=O)NCc3ccc(C(=O)NO)cc3)[nH]2)cc1 | 5.99
COc1ccc(-c2cc(-c3ccsc3)c(C(=O)NCc3ccc(C(=O)NO)cc3)[nH]2)cc1 | 4.59

---

- testedSystem: UniProt Q92769
- Sequence (Q92769 whole entry): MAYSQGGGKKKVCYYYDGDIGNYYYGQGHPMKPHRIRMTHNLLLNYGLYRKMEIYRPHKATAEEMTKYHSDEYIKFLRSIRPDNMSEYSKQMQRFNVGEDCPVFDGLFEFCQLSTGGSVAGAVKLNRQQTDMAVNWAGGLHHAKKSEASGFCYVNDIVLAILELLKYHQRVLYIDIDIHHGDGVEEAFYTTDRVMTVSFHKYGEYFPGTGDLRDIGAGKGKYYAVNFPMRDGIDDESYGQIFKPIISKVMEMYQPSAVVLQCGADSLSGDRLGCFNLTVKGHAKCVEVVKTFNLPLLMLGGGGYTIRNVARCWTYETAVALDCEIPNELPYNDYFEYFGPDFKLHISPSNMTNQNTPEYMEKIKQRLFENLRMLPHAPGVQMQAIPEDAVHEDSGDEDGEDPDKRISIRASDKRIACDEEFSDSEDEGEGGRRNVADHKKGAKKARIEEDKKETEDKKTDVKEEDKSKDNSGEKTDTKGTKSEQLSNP
- test: HDAC2 fluorogenic peptide deacetylation assay
- Type: biochemical
- measurementContext: human HDAC2, 50 μM substrate, 30° C., 2 h; read-out: IC50 (nM) of enzyme activity HDAC2
Reported log10 of IC50 values for a set of molecules
assayEndpoint: log10 of IC50 (log10 of the value in nM)

molecule | log10 of IC50
O=C(NO)c1ccc(CNC(=O)c2[nH]c(-c3ccc(O)cc3)cc2-c2ccsc2)cc1 | 2.50
Nc1ccccc1NC(=O)c1ccc(CNC(=O)c2[nH]c(-c3ccoc3)cc2-c2ccc(O)cc2)cc1 | 2.54
COc1ccc(-c2cc(-c3ccsc3)c(C(=O)NCc3ccc(C(=O)NO)cc3)[nH]2)cc1 | 2.59
COc1ccc(-c2cc(-c3ccccc3)[nH]c2C(=O)NCc2ccc(C(=O)Nc3ccccc3N)cc2)cc1 | 3.10
COc1ccc(-c2cc(-c3ccccc3)[nH]c2C(=O)NCCCCCC(=O)NO)cc1 [Kendine 91, reference compound] | 3.23
O=C(NO)c1ccc(CNC(=O)c2[nH]c(-c3cccs3)cc2-c2ccc(F)cc2)nc1 | 3.40
O=C(NO)c1ccc(CNC(=O)c2[nH]c(-c3ccccc3)cc2-c2ccc(O)cc2)cc1 | 3.14
O=C(NO)c1ccc(CNC(=O)c2[nH]c(-c3ccc(O)cc3)cc2-c2ccoc2)cc1 | 2.16
Nc1ccccc1NC(=O)c1ccc(CNC(=O)c2[nH]c(-c3ccsc3)cc2-c2ccc(O)cc2)cc1 | 2.88
O=C(NO)c1ccc(CNC(=O)c2[nH]c(-c3ccoc3)cc2-c2ccc(O)cc2)cc1 | 2.96
Nc1ccccc1NC(=O)c1ccc(CNC(=O)c2[nH]c(-c3ccc(O)cc3)cc2-c2ccoc2)cc1 | 3.26
O=C(NO)c1ccc(CNC(=O)c2[nH]c(-c3ccoc3)cc2-c2ccc(F)cc2)cc1 | 3.06
Nc1ccccc1NC(=O)c1ccc(CNC(=O)c2[nH]c(-c3ccc(O)cc3)cc2-c2ccsc2)cc1 | 2.56
Nc1ccccc1NC(=O)c1ccc(CNC(=O)c2[nH]c(-c3ccc(O)cc3)cc2-c2ccccc2)cc1 | 2.64
